Assay: In vivo pharmacokinetics in ICR mice
Design: species or system mouse
Settings: male, ICR, mouse, plasma, ip, 3 mg/kg
measured parameter: half-life (h)
Write the value in h as a bare number.

# input Fill in the blank: the reported half-life of Cc1ccc(C(CC(=O)O)c2cc(OCCCCCCCCNc3cccc4c3C(=O)N(C3CCC(=O)NC3=O)C4=O)c3c(c2)nnn3C)cc1CN1C[C@@H](C)Oc2ccccc2S1(=O)=O (stereo partly shown) is ____.
# output 3.67

---

Test: In vivo pharmacokinetics in ICR mice
Design: species or system mouse
Conditions: male, ICR, mouse, plasma, ip, 3 mg/kg
measured parameter: Cmax (ng/mL)
The reply should be a number in ng/mL, with the unit left off.

# input // query Cmax value for entry Cc1ccc(C(CC(=O)O)c2cc(OCCCCCCCCNc3cccc4c3C(=O)N(C3CCC(=O)NC3=O)C4=O)c3c(c2)nnn3C)cc1CN1C[C@@H](C)Oc2ccccc2S1(=O)=O (stereo partly shown)
# output 1970
